- Tested on: beta-tubulin
- Test Details: Inhibition of tubulin polymerization in MCF-7 cells (beta-tubulin SimpleStep ELISA)
- Format: cell-based, human
- Measurement Context: MCF7 cells, concentration not given
- Experimental: Beta-tubulin in vitro simple step ELISA® (Enzyme-Linked Immunosorbent Assay) kit is designed for quantitative measurement of beta-tubulin protein in human cell and tissue homogenate extract samples. The SimpleStep ELISA® employs an affinity tag labeled capture antibody and a reporter conjugated detector antibody which immunocapture the sample analyte in solution. […] Signal is generated proportionally to the amount of bound analyte and the intensity is measured at 450 nm. […]
In this section we review reported tubulin polymerization % inhibition values for a set of molecules.
Write the answer as a number in %, unit excluded.

Solved entries (count: 2):
# Structure Notation, tubulin polymerization % inhibition [%]
records = [
    ("COc1cc(OC)cc(-c2cc(-c3ccc(OC)c(OC)c3)nc(N=P(c3ccccc3)(c3ccccc3)c3ccccc3)c2C#N)c1", 74.3),
    ("COc1ccc(-c2cc(-c3cc(OC)cc(OC)c3)c(C#N)c(N=P(c3ccccc3)(c3ccccc3)c3ccccc3)n2)cc1", 71.7),
]

From here, focus on the item given below.
## Task # lookup: tubulin polymerization % inhibition of `COc1ccc(/C=C\c2cc(OC)c(OC)c(OC)c2)cc1O`
## Result 72.1
